src = the supplement of paper PMC6555819

PBM binding z-score values, listed per item
Test system: LXRb:RXRa (NR concentration 270 nM, RXRa partner concentration 90 nM)
Assay Name: PBM binding z-score (relative to random genomic background probes); higher = stronger binding; sequences stand for … in GC…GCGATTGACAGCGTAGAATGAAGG
Response field accepts a number only; no unit should be typed.

// solved cases for PBM binding z-score follow
# Residue Codes, PBM binding z-score
measured = [
    ("TCAGACAGGTGAAGGTTACTCAGGTACGCAGTCG", 2.38),
    ("TGTCAAAGTTCAAAGGTAACCTAAGTATCCACAC", 5.02),
    ("ACCCGGAGGACAAAGGTCAGAGCTACGCCAGTGA", 3.55),
]

Just so you know, measured PBM binding z-score for ATACCAAGGTGATGGTGAGGTCGTTGATACTAAC came out at 1.09

Just so you know, measured PBM binding z-score for CATACAGGGTCAGCTAGGCCGGAGTAGGGACGGC came out at 1.86

* * *

System: PPARg DBDmut IVT, anti-PPARg (DBD mutation: PPARg1 K132A/R137A, NR concentration 270 nM)
Assay Name: PBM binding z-score (relative to random genomic background probes); higher = stronger binding; sequences stand for … in GC…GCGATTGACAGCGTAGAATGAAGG
# if value of PBM binding z-score reaches 0.6, tag Criterion met; if it stays below, tag Criterion not met

Worked cases, answers included:
# Residue Codes, System Name, Label Value
rows = [
    ("TCTGCTAGCTCAACGATGGTCAGCTAATCTGCTA", "PPARg DBDmut IVT, anti-PPARg (DBD mutation: PPARg1 K132A/R137A, NR concentration 270 nM)", "Criterion not met"),
    ("ATCGAAAGGTTGAGGTGAGTATAGAGAAAGGGAA", "PPARg DBDmut IVT, anti-PPARg (DBD mutation: PPARg1 K132A/R137A, NR concentration 270 nM)", "Criterion met"),
    ("CGTCCAAGGTCAGGGTCAGTGAAAGAGACTCGAA", "PPARg DBDmut IVT, anti-PPARg (DBD mutation: PPARg1 K132A/R137A, NR concentration 270 nM)", "Criterion not met"),
    ("GCTAGCAGGCCATTTGTGTCACTCAATGACGGGC", "PPARg DBDmut IVT, anti-PPARg (DBD mutation: PPARg1 K132A/R137A, NR concentration 270 nM)", "Criterion not met"),
    ("TCATATAGGTACAAGGTGAAAGTCGGTGTGGTAA", "PPARg DBDmut IVT, anti-PPARg (DBD mutation: PPARg1 K132A/R137A, NR concentration 270 nM)", "Criterion met"),
]

Ask: Please tell me: is the sequence TCATATAGGTAAAAGGTGAAAGACGGTGTGGTAA at or over 0.6 in terms of PBM binding z-score?
Result: Criterion met

Ask: Please tell me: is the sequence ATATGCAGGTTACATCCGGGTCATTCAGGCTATG at or over 0.6 in terms of PBM binding z-score?
Result: Criterion met

Ask: Please tell me: is the sequence ATCTCTAGGTAACAAGTTCAATGAAAGAGAGGAC at or over 0.6 in terms of PBM binding z-score?
Result: Criterion met

Ask: Please tell me: is the sequence AATACAGGGTCATCGTAGGCCAGATTACGCACAG at or over 0.6 in terms of PBM binding z-score?
Result: Criterion met

Ask: Please tell me: is the sequence CGTCAACGTTCAAGGTAACGTAACAGAAAGCAGC at or over 0.6 in terms of PBM binding z-score?
Result: Criterion not met

Ask: Please tell me: is the sequence CCTAATAGTTGACCATAAGGGCAACCGAAGCTCG at or over 0.6 in terms of PBM binding z-score?
Result: Criterion not met

Ask: Please tell me: is the sequence CCTACTGGGCCATTCAGAGGTCATTGAACATATG at or over 0.6 in terms of PBM binding z-score?
Result: Criterion not met

Ask: Please tell me: is the sequence ACTCGTTGGTCAGCTGAGGTCACACACAATTCGG at or over 0.6 in terms of PBM binding z-score?
Result: Criterion met

Ask: Please tell me: is the sequence TCGAGTAGGTTACCAATGGCGCATTCAGCTTTCT at or over 0.6 in terms of PBM binding z-score?
Result: Criterion not met

Ask: Please tell me: is the sequence TCATATAGGTAAAAGGTGAAAGCCGGTGTGGTAA at or over 0.6 in terms of PBM binding z-score?
Result: Criterion met

Ask: Please tell me: is the sequence ATACCAAGGTGATCGTGAGGTTGTTGATACTAAC at or over 0.6 in terms of PBM binding z-score?
Result: Criterion met

Ask: Please tell me: is the sequence CGTCCAAGGTCATAGGAAGTCAGTGAAGACAGAT at or over 0.6 in terms of PBM binding z-score?
Result: Criterion not met

* * *

PBM binding z-score values, listed per item
Test system: RARa:RXR (NR concentration 270 nM, RXRa partner concentration 90 nM)
Assay Name: PBM binding z-score (relative to random genomic background probes); higher = stronger binding; sequences stand for … in GC…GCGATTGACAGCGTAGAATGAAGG
Response field accepts a number only; no unit should be typed.

// solved cases for PBM binding z-score follow
# Residue Codes, PBM binding z-score
rows = [
    ("TCGAGTAGGTTAGGGGCATCCAGAATGGCGTCGA", 0.496),
    ("AGTCAAAGTTCACTAGGTAACGGAAGATTCAGCT", 3.09),
]

Please turn your attention to the following entry.
Just so you know, measured PBM binding z-score for ATCTCTAGCTAAGACTCAGTTCAGTGAAGAACGC came out at 0.508

* * *

System: PPARg homodimer (NR concentration 180 nM)
Assay Name: PBM binding z-score (relative to random genomic background probes); higher = stronger binding; sequences stand for … in GC…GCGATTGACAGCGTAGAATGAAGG
# if value of PBM binding z-score reaches 1, tag Yes; if it stays below, tag No

Worked cases, answers included:
# Residue Codes, Label Value
rows = [
    ("ATATGTAGGTTATCGGGTAATTCAGTTTGCGCAT", "Yes"),
    ("CCTCGGAGGACAGAAGGTCAGCGCTGTCCGCTTT", "Yes"),
    ("TCTCGGAGAACACGAAAGGTCAGAGCTCGACATC", "Yes"),
    ("TCTGCTAGGTCAGTTGGTCAACTAACGAGCTGCC", "No"),
    ("CTCGAAAGGTCGTGCTCAGGTGTGTATACCAAAC", "Yes"),
]

Ask: Please tell me: is the sequence TGAATGAGGTTAAAGATAAGGGAACGTGGCGTCG at or over 1 in terms of PBM binding z-score?
Result: No

Ask: Please tell me: is the sequence AGAATGAGGTTATACGTAGATTAGGGAAGAAAGT at or over 1 in terms of PBM binding z-score?
Result: No

Ask: Please tell me: is the sequence CGTCCAAGGTCAAGGCTAGGTCAGTGAAAGCATT at or over 1 in terms of PBM binding z-score?
Result: Yes

Ask: Please tell me: is the sequence TCTTGTAGATCAGCAGGATAAGAAAGCTGGCCAA at or over 1 in terms of PBM binding z-score?
Result: No

Ask: Please tell me: is the sequence TCTATTAGCTGAAGGGCAACCGACGAGTCCGTTT at or over 1 in terms of PBM binding z-score?
Result: No

Ask: Please tell me: is the sequence CAAACTAGGACAAGAGGTCAAAGTCCGCTTCCCG at or over 1 in terms of PBM binding z-score?
Result: Yes

Ask: Please tell me: is the sequence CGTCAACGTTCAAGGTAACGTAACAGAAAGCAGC at or over 1 in terms of PBM binding z-score?
Result: No

Ask: Please tell me: is the sequence CCGACTGGGGCATAAGGTTACCAGAAGCCAGCCC at or over 1 in terms of PBM binding z-score?
Result: No

Ask: Please tell me: is the sequence TCGAGTATGTTAGTCGGGGCATTCAGCCAACATA at or over 1 in terms of PBM binding z-score?
Result: No

Ask: Please tell me: is the sequence ACTAGCAGGCCAAGGATCACTCAAGATTAGTCCG at or over 1 in terms of PBM binding z-score?
Result: No

Ask: Please tell me: is the sequence TCTTGTAGATCAACAGGAGGTTAAGAGAGATCGA at or over 1 in terms of PBM binding z-score?
Result: No

Ask: Please tell me: is the sequence CGTCCAAGGTCATAGGAGGCCAGTGAAGACAGAT at or over 1 in terms of PBM binding z-score?
Result: Yes

Ask: Please tell me: is the sequence GCTTACGGGTCAATGGTTATAGCATGAATAGAAT at or over 1 in terms of PBM binding z-score?
Result: Yes

Ask: Please tell me: is the sequence CGAACTAGGTCACCGGAAGGTCAAAGTCCGCATG at or over 1 in terms of PBM binding z-score?
Result: Yes

Ask: Please tell me: is the sequence AGTCAAAGTTCATTAGGTAACGTAAGATTCAGCT at or over 1 in terms of PBM binding z-score?
Result: Yes
